biological target: T1, Human trkC-Fc fusion protein (human, UniProt Q16288 32-429); assay: BIAcore SPR, human trkC-Fc on chip; KD calculated from koff with 2256 kon 5E5 1/Ms
T1 construct: Immobilised on CM5 chip for BIAcore; also called htrkC; not shown: Fc part not described
pKd: −log10 of the molar value.
metric: pKd

| binder | reported-value |
| --- | --- |
| Fab clone 129(C36) (Fab, V domains shown) VH: QVQLVQSGAEVKKPGASVKVSCKASGYTFTSYWMHWVRQAPGQGLEWMGEIYPSNGRTNYNEKFKSRVTMTLDKSTSTVYMQLSSLRSEDTAVYYCARKYYYGNSRRSWYFDVWGQGTTVTVS VL: DIQMTQSPSSLSASVGDRVTITCRASESVDNYGISFMNWYQQKPGKPPKLLIYAASNQGSGVPSRFSGSGSGTDFTFTISSLQPEDIATYYCQQSKAVPRTFGQGTKLEIKR | 8.42 |
| Fab clone 129(C14) (Fab, V domains shown) VH: QVQLVQSGAEVKKPGASVKVSCKASGYTFTSYWMHWVRQAPGQGLEWMGEIYPSNGRTNYNEKFKSRVTMTRDKSTSTVYMHLSSLRSEDTAVYYCARKYYYGNSRRSWYFDVWGQGTTVTVS VL: DIQMTQSPSSLSASVGDRVTITCRASESVDNYGISFMNWYQQKPGQAPKLLIYAASNQGSGVPSRFSGSGSGTDFTFTISSLQPEDIATYYCQQSKEVPRTFGQGTKLEIKR | 8.49 |
| Fab clone 129(C16) (Fab, V domains shown) VH: QVQLVQSGAEVKKPGASVKVSCKASGYTFTSYWMHWVRQAPGQGLEWMGEIYPSNGRTNYNEKFKSRVTMTLDTSTSTVYMQLSSLRSEDTAVYYCARKYYYGNSKRSWYFDVWGQGTTVTVS VL: DIQMTQSPSSLSASVGDRVTITCRASESVDNYGISFMNWYQQKPGKPPKLLMYAASNQGSGVPSRFSGSGSGTDFTFTISSLQPEDIATYYCQQSKEVPRTFGQGTKLEIKR | 8.33 |
| Fab clone 129(T8)(H8xE10) (Fab, V domains shown) VH: QVQLVQSGAEVKKPGASVKVSCKASGYTFTSYRIHWVRQAPGQGLEWMGEIYPSNSRTNYNEKFKSRATMTGDKSTSTVYMELSSLRSEDTAVYYCARKYYYGNSRRSWYFDVWGQGTTVTVS VL: DIQMTQSPSSLSASVGDRVTITCRASESIDNYGISFLAWYQQKPGKAPKLLIYAASNRGSGVPSRFSGSGSGTDFTFTISSLQPEDIATYYCQQSKTVPRTFGQGTKLEIKR | 8.70 |
| Fab clone 129(T34) (Fab, V domains shown) VH: QVQLVQSGAEVKKPGASVKVSCKASGYTFTSYWMHWVRQAPGQGLEWMGEIYPSNGRTNYNEKFKSRVTMTRDTSTSTVYMQLSSLRSEDTAVYYCARKYYYGNSRRSWYFDVWGQGTTVTVS VL: DIQMTQSPSSLSASVGDRVTITCRASESVDNYGISFMNWYQQKPGQPPKLLIYAASNQGSGVPSRFSGSGSGTDFTFTISSLQPEDIATYYCQQSKTVPRTFGQGTKLEIKR | 8.64 |
